Experiment: chemical genetic growth profiling, strain panel (AID 1159580);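 further: tested at 20 µM; growth read once vehicle control cultures reached saturation at 30 °C; 1 = growth at the plate median or of vehicle wells; lower values mean less growth of the strain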
Conditions: S. cerevisiae deletion strains, growth OD, locus YCL011C, strain gbp2
Hit rate of the full screen: of about 5,500 compounds, about 2,000 (36%) were called active. Inconclusive results (about 18%) are left out. No stated cut-off is given here; in the data, active means normalized growth mostly below about 0.91 (no sharp cut-off); inconclusive means no clear call, values can overlap the other calls; inactive means mostly above about 0.92. Some of the results follow.
Labels: t (active), f (inactive)

{"compound": "COc1cc(N)c(Cl)cc1C(=O)NC1CCN(Cc2ccccc2)CC1", "label value": "f"}
{"compound": "Clc1ccccc1C(c1ccccc1)(c1ccccc1)n1ccnc1", "label value": "t"}
{"compound": "Nc1c2ccccc2nc2ccccc12", "label value": "t"}
{"compound": "CC(C)(Sc1cc(C(C)(C)C)c(O)c(C(C)(C)C)c1)Sc1cc(C(C)(C)C)c(O)c(C(C)(C)C)c1", "label value": "f"}
{"compound": "COc1c(-c2coc3cc4c(cc3c2=O)CC(OC(C)=O)C(C)(C)O4)ccc2c1C=CC(C)(C)O2 (stereo not given)", "label value": "f"}
{"compound": "Nc1ccccc1C(=O)CC(N)C(=O)O (stereo not given)", "label value": "f"}
{"compound": "Nc1ccc(S(=O)(=O)Nc2ccnn2-c2ccccc2)cc1", "label value": "f"}
{"compound": "CC1OC(=O)C(C(C)C)NC(=O)C(C(C)C)OC(=O)C(C(C)C)NC(=O)C(C)OC(=O)C(C(C)C)NC(=O)C(C(C)C)OC(=O)C(C(C)C)NC(=O)C(C)OC(=O)C(C(C)C)NC(=O)C(C(C)C)OC(=O)C(C(C)C)NC1=O (stereo not given)", "label value": "t"}
{"compound": "COc1ccc2c(c1)c(CC(=O)OCC(=O)O)c(C)n2C(=O)c1ccc(Cl)cc1", "label value": "f"}
{"compound": "OC(CCN1CCCCC1)(c1ccccc1)C1CCCCC1 (stereo not given)", "label value": "f"}
{"compound": "Cc1cc(-n2c(=O)[nH]c(=O)n(C)c2=O)ccc1Oc1ccc(SC(F)(F)F)cc1", "label value": "t"}
{"compound": "C#C[C@]1(OC(C)=O)CCC2C3CCC4=CC(=O)CC[C@@H]4C3CC[C@@]21C (stereo not given in full)", "label value": "f"}
{"compound": "NC(N)=N/N=C/c1c(Cl)cccc1Cl", "label value": "f"}
{"compound": "C#C[C@]1(OC(C)=O)CCC2C3CCC4=C/C(=N\\O)CCC4C3CC[C@@]21CC (stereo not given in full)", "label value": "t"}
{"compound": "CCOC(=O)OC(C)OC(=O)C1N2C(=O)C(NC(=O)[C@H](N)c3ccccc3)C2SC1(C)C (stereo not given in full)", "label value": "f"}
{"compound": "O=C1c2c(O)cccc2Cc2cccc(O)c21", "label value": "f"}
{"compound": "CCN1C[C@]2(OC(=O)c3ccccc3NC(C)=O)CCC(OC)[C@]34C1[C@H](CC23)[C@@]1(O)CC(OC)[C@H]2CC4C1(O)[C@H]2OC (stereo not given in full)", "label value": "f"}
{"compound": "OC(CCN1CCCC1)(c1ccccc1)C1CCCCC1 (stereo not given)", "label value": "f"}
{"compound": "C#C[C@]1(O)CCC2C3CCC4=CC(=O)CC[C@@H]4C3CC[C@@]21C (stereo not given in full)", "label value": "f"}
{"compound": "Cc1ccc(S(=O)(=O)NC(=O)NN2CC3CCCC3C2)cc1 (stereo not given)", "label value": "f"}

====

Assay: chemical genetic growth profiling, strain panel (AID 1159580);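 further: tested at 20 µM; growth read once vehicle control cultures reached saturation at 30 °C; 1 = growth at the plate median or of vehicle wells; lower values mean less growth of the strain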
Conditions: S. cerevisiae deletion strains, growth OD, locus YLR262C, strain YPT6 (second series), active compounds read low
The whole screen tested about 5,500 compounds, of which about 2,000 (36%) were called active. Inconclusive results (about 18%) are left out. Some of the results follow.
Mark TRUE only for normalized growth values smaller than 0.8; exact matches and larger values are FALSE.

{"compound": "NC12CC3CC(CC(C3)C1)C2", "label value": "FALSE"}
{"compound": "C#C[C@]1(OC(C)=O)CCC2C3CCC4=CC(=O)CC[C@@H]4C3CC[C@@]21C (stereo partly drawn)", "label value": "FALSE"}
{"compound": "COc1cc(C(=O)O[C@H]2CC[C@@]3(C)[C@@H]4CC[C@H]5[C@]6(O)C[C@H](O)[C@@]7(O)[C@@H](CN8C[C@@H](C)CC[C@H]8[C@@]7(C)O)[C@]6(O)C[C@@]53O[C@]24O)cc(OC)c1OC", "label value": "FALSE"}
{"compound": "C#C[C@]1(O)CCC2C3CCC4=CC(=O)CC[C@@H]4C3CC[C@@]21CC (stereo partly drawn)", "label value": "FALSE"}
{"compound": "C#C[C@]1(OC(C)=O)CCC2C3CCC4=C/C(=N\\O)CCC4C3CC[C@@]21CC (stereo partly drawn)", "label value": "TRUE"}
{"compound": "Cc1cc(-n2c(=O)[nH]c(=O)n(C)c2=O)ccc1Oc1ccc(SC(F)(F)F)cc1", "label value": "TRUE"}
{"compound": "C[C@]12CCC(=O)C=C1CCC1C2[C@@H](O)C[C@@]2(C)C1CC[C@]2(O)C(=O)CO (stereo partly drawn)", "label value": "FALSE"}

====

Assay: chemical genetic growth profiling, strain panel (AID 1159580);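 further: tested at 20 µM; growth read once vehicle control cultures reached saturation at 30 °C; 1 = growth at the plate median or of vehicle wells; lower values mean less growth of the strain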
Conditions: S. cerevisiae deletion strains, growth OD, locus YHR200W, strain rpn10, active compounds read low
The whole screen tested about 5,500 compounds, of which about 2,000 (36%) were called active. About 18% were inconclusive and are not listed. This is one part of the list.
Here, each record is paired with measured normalized growth data.

{"compound": "CC(=O)/C=C\\[C@@H]1[C@@]2(C)CCCC(C)(C)C2CC[C@@]1(C)O (some centres undefined)", "normalized growth": 0.988}
{"compound": "CCOP(=S)(OCC)Oc1nc(Cl)c(Cl)cc1Cl", "normalized growth": 0.986}
{"compound": "NC(N)=N/N=C/c1c(Cl)cccc1Cl", "normalized growth": 1.03}
{"compound": "Cc1cc(C(C)(C)C)c(O)c(C(C)(C)C)c1", "normalized growth": 1}
{"compound": "CC(=O)O[C@H]1CC[C@@]2(C)C(CC[C@]3(C)C2C(=O)C=C2C4[C@@H](C)[C@H](C)CC[C@]4(C(=O)O)CC[C@]23C)C1(C)C (some centres undefined)", "normalized growth": 1.01}
{"compound": "CC(C)=CCCC1(C)C=Cc2c(O)c3c(c(CC=C(C)C)c2O1)OC12C(CC4CC1C(C)(C)OC2(C/C=C(/C)C(=O)O)C4O)C3=O (centres undefined)", "normalized growth": 1.01}
{"compound": "Cc1cc(O)c2c(c1)Cc1cccc(O)c1C2=O", "normalized growth": 1.05}
{"compound": "CC(=O)OC1CC[C@@]2(C)C(CC[C@]3(C)C2CCC2C4CC(C)(C)CCC4(C(=O)O)CC[C@]23C)C1(C)C (some centres undefined)", "normalized growth": 0.999}
{"compound": "C[C@@H]1OC(O[C@H]2C(O[C@H]3CC[C@@]4(C)C(CC[C@]5(C)C4CC=C4C6CC(C)(C)CC[C@]6(C(=O)O)CC[C@]45C)[C@]3(C)CO)OC[C@H](O)[C@@H]2O)[C@H](O)[C@H](O)[C@H]1O (some centres undefined)", "normalized growth": 0.0676}
{"compound": "CCCOc1ccccc1-c1nc2n[nH]nc2c(=O)[nH]1", "normalized growth": 1.01}
{"compound": "Nc1ccc(S(=O)(=O)Nc2ccnn2-c2ccccc2)cc1", "normalized growth": 0.991}
{"compound": "NCCC(=O)N[C@@H](Cc1cnc[nH]1)C(=O)O", "normalized growth": 0.986}
{"compound": "CCOP(=S)(OCC)Oc1cc(C)nc(C(C)C)n1", "normalized growth": 0.993}
{"compound": "O=c1oc2cc(O)ccc2s1", "normalized growth": 0.927}
{"compound": "CC(=O)O[C@H]1CC[C@@]2(C)C(CC[C@]3(C)C2CC=C2C4CC(C)(C)CC[C@]4(C)CC[C@]23C)C1(C)C (some centres undefined)", "normalized growth": 1.02}
{"compound": "COc1c(CC(=O)c2cc3c(cc2O)OC(C)(C)C(O)C3)ccc2c1C=CC(C)(C)O2 (centres undefined)", "normalized growth": 1}
{"compound": "CC1(C)CC[C@]2(C(=O)O)CC[C@]3(C)C(=CCC4[C@@]5(C)CC[C@H](O)[C@@](C)(CO)C5CC[C@]43C)C2C1 (some centres undefined)", "normalized growth": 1.01}
{"compound": "O=C1c2c(O)cccc2Cc2cccc(O)c21", "normalized growth": 1}
{"compound": "CCCCCCCCCCCC[C@H](C(=O)O)[C@@H](C)C(=O)O", "normalized growth": 1.02}

====

Test: chemical genetic growth profiling, strain panel (AID 1159580);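 further: tested at 20 µM; growth read once vehicle control cultures reached saturation at 30 °C; 1 = growth at the plate median or of vehicle wells; lower values mean less growth of the strain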
Conditions: S. cerevisiae deletion strains, growth OD, locus YDR150W, strain NUM1, active compounds read low
Among all 5,500 compounds or so, about 2,000 (36%) were called active. Another 18% or so got no clear call; they are omitted. The list shows a part of the results.
readout type: normalized growth

{"compound": "COc1ccc(-c2n[nH]c(=S)n2-c2cccc(OC)c2)cc1", "assay value": 0.977}
{"compound": "N=C(N)SCCN", "assay value": 1.02}
{"compound": "COc1ccc2c(c1)c(CC(=O)OCC(=O)O)c(C)n2C(=O)c1ccc(Cl)cc1", "assay value": 1.02}
{"compound": "CCCC(CC(=O)O)(C(=O)O)c1ccccc1 (centres undefined)", "assay value": 1}
{"compound": "O=C(O)/C=C1\\CCCc2ccccc2C1O (centres undefined)", "assay value": 0.991}
{"compound": "S=C(NCc1cccnc1)Nc1ccccc1Cl", "assay value": 0.953}
{"compound": "CCCCCCCCCCCC[C@H](C(=O)O)[C@@H](C)C(=O)O", "assay value": 0.998}
{"compound": "Cc1cc(C2=CSC3=NCCN23)ccc1Cl", "assay value": 0.974}
{"compound": "Cc1ccc2[nH]c3c(c2c1)CCCC3", "assay value": 0.911}
{"compound": "C=C1SC(=Nc2cccc(OC)c2)N(C(=O)C(c2ccccc2)C2CCCC2)C1(C)C (centres undefined)", "assay value": 1.02}
{"compound": "C[C@]12CCC(=O)C=C1CC[C@@H]1[C@@H]2C(=O)C[C@@]2(C)[C@H]1CC[C@]2(O)C(=O)CO", "assay value": 1}
{"compound": "CCC(C)C(=O)O[C@H]1[C@H](O)C2C(CN3CC(C)CCC3[C@@]2(C)O)C2C[C@]34O[C@]5(O)C(OC(=O)C(C)(O)CC)CC[C@@]3(C)C5C(OC(C)=O)[C@@H](OC(C)=O)C4[C@@]21O (some centres undefined)", "assay value": 1.02}
{"compound": "CC1C(=O)OC2C1CCC1(C)C=CC(=O)C3(C)OC213 (centres undefined)", "assay value": 1}
{"compound": "N=C(N)SCCc1ccc(CCSC(=N)N)cc1", "assay value": 1}
{"compound": "Cc1cc(OCOc2ccc(Cl)c(C)c2)ccc1Cl", "assay value": 0.997}
{"compound": "CC12CCC3C4CCC(=O)C=C4CCC3C1CCC2=O (centres undefined)", "assay value": 0.995}
{"compound": "COC(=O)Nc1nc2ccc(C(=O)c3cccs3)cc2[nH]1", "assay value": 0.994}
{"compound": "O=C(O/N=C\\c1ccc2c(c1)OCO2)c1ccccc1Br", "assay value": 0.872}
{"compound": "COC(=O)c1cccc(NC(=O)CC2C(=O)NCCN2C(=O)c2cccs2)c1 (centres undefined)", "assay value": 0.982}
{"compound": "COc1ccc(C(=O)NCc2cccnc2)cc1C(=O)NCc1cccnc1", "assay value": 1}
{"compound": "COC(=O)C1Cc2c([nH]c3ccccc23)C2(CCN(C)CC2)N1 (centres undefined)", "assay value": 0.986}
{"compound": "CC(C)(C)c1ccc(-c2n[nH]c(=S)n2-c2cccc(C(F)(F)F)c2)cc1", "assay value": 1.01}
{"compound": "O=C(Nc1ccc(Cl)c(Cl)c1)c1ccccc1", "assay value": 0.889}
{"compound": "Cc1cc(O)cc(=O)o1", "assay value": 1.01}
